# assayed.system: SARS-CoV-2 M^Pro (Severe acute respiratory syndrome coronavirus 2)
# experiment: biochemical
# Format: biochemical
# condition.info: read-out: Enzymatic IC50
measurement.type: IC50

| compound | measurement |
| --- | --- |
| C[C@@H](OC(C)(C)C)[C@H](NC(=O)NC(C)(C)C)C(=O)N1C[C@H]2[C@@H]([C@H]1C(=O)N[C@H](C=O)C[C@@H]1CCNC1=O)C2(C)C [MPI68] | 97 nM |
| C=CC(=O)N(CCC(N)=O)NC(=O)[C@H](CC(C)C)NC(=O)OCc1ccccc1 [MPI38] | 640 nM |
| C[C@@H](OC(C)(C)C)[C@H](NC(=O)OCc1ccc(F)cc1)C(=O)N[C@@H](CC1CCCCC1)C(=O)N[C@H](C=O)C[C@@H]1CCNC1=O [MPI103] | 196 nM |
| CC(C)C[C@H](NC(=O)OCc1ccccc1)C(=O)NN(CCC(N)=O)C(=O)[C@H](C)Cl [MPI40] | 1620 nM |

---

# assayed.system: SARS-CoV-2 M^Pro (Severe acute respiratory syndrome coronavirus 2)
# experiment: biochemical
# Type: biochemical
# condition.info: read-out: Enzymatic IC50
// reported IC50 for each item listed

| compound | result.modifier | IC50 [nM] |
| --- | --- | --- |
| CC(C)C[C@H](NC(=O)OCc1ccccc1)C(=O)NN(CCC(N)=O)C(=O)COc1ccc([N+](=O)[O-])cc1 | > | 10000 |
| C=CC(=O)N(C[C@@H]1CCC(=O)N1)NC(=O)[C@@H]1[C@@H]2[C@H](CN1C(=O)[C@@H](NC(=O)NC(C)(C)C)[C@@H](C)OC(C)(C)C)C2(C)C | > | 2000 |
| CC(C)C[C@H](NC(=O)[C@@H](NC(=O)OCc1ccccc1)C(C)C)C(=O)N[C@@H](C[C@@H]1CCNC1=O)C(O)C#N (stereo partly drawn) | = | 18.8 |
| C=CC(=O)N(CCC(N)=O)NC(=O)[C@H](CC(C)C)NC(=O)[C@@H](NC(=O)OCc1ccccc1)C(C)C | = | 36 |
| C[C@@H](OC(C)(C)C)[C@H](NC(=O)OCc1ccccc1)C(=O)N[C@@H](CC1CCCCC1)C(=O)N[C@@H](C[C@@H]1CCNC1=O)C(=O)C(N)=O | = | 167 |
| CC(C)C[C@H](NC(=O)OCc1ccccc1)C(=O)NN(CCC(N)=O)C(=O)c1cc([N+](=O)[O-])ccc1F | = | 39000 |
